- method notes: Circular dichroism (CD) spectroscopy of linear and stapled peptides in water or 40% TFE/water (Example 3)
- Type: physicochemical
- condition label: water
- Protocol: CD spectra were obtained on a Jasco J-810 spectropolarimeter and recorded in the range of 180-260 nm. Peptide solutions were prepared with a 0.1M phosphate buffer solution to a concentration of 0.5 mM. The measurements were performed in quartz cuvettes with a path length of 1 mm and a scanning speed of 10-50 nm/min. Five individual data points were averaged by the instrument in order to obtain the reported CD spectrum. The measurements were carried out at 20° C. […]
Entries and their [0]208 mean residue ellipticity at λ=208 nm values follow.
Express your answer in deg cm^2 dmol^−1, writing the number without its unit.

Worked set:
- substance: "Ac-NLKQKIKHVVKLKDENSQLKSEVSKLRSQLVKRKQN-NH2 [Compound 275]"
  recorded measurement: "-9.71E+03"
- substance: "Ac-(cyclo-11-15, cyclo-16-20)-KIKHVVKLKD[ENSQK][ESEVK]KLRSQLVKRIK-NH2 [Compound 267]"
  recorded measurement: "-1.29E+04"
- substance: "Ac-KIKHVVKLKDENSQLKSEVSKLRSQLVKRK-NH2 [Compound 265]"
  recorded measurement: "-2.73E+04"

Pending substance:
Q: Item under review: Ac-(cyclo-10-14, cyclo-15-19)-KIKHVVKLK[KENSE][EKSEK]SKLRSQLVKRK-NH2 [Compound 269] . Reported [0]208 mean residue ellipticity at λ=208 nm?
Ans: -9.04E+03
